B1: HDV Ribozyme (parent)
chain: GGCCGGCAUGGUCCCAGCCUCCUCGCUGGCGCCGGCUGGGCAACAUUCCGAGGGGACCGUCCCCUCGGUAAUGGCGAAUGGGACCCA

- Variants of: B1
- MEASUREMENT DESCRIPTION: self-cleavage, relative activity (ratio to wild type); higher = more cleavage; co-transcriptional
PROPERTY LABEL: self-cleavage

Completed entries (count: 3):
**Q:** Requested field: self-cleavage. Item: C32A A43G
**A:** 0.119

**Q:** Requested field: self-cleavage. Item: G59C C61G
**A:** 0.927

**Q:** Requested field: self-cleavage. Item: G35A G76C
**A:** 0.708

New cases:
**Q:** Requested field: self-cleavage. Item: A51G U69G
**A:** 1.09

**Q:** Requested field: self-cleavage. Item: C24A C26G
**A:** 0.858

**Q:** Requested field: self-cleavage. Item: U27G G40C
**A:** 0.0639
